Biological target: Bifunctional protein GlmU (Mycobacterium tuberculosis (strain ATCC 25618 / H37Rv))
Experiment: inhibition of mycobacterial GlmU enzyme – biochemical, glucosamine-1-phosphate acetyltransferase (AID 1376);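 further: 0% = complete reaction with vehicle and 100% = reaction without substrate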
Details: M. tuberculosis GlmU acetyltransferase enzyme assay; active compounds read high;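 tested at 30 µM in the primary screen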
Out of some 220,000 compounds screened, about 530 (0.24%) were called active. Many of the other results were omitted from the sample, so actives are more common in it than they were. Potency and affinity values are given separately.

compound	units	inhibition
CCN(C(=O)c1cc2c(=O)[nH]c3ccc(C)cc3c2s1)c1cccc(C)c1	%	0.79
CCC(=NC(C)c1ccccc1)c1c(O)n(C)c(=O)n(C)c1=O (stereo unspecified)	%	-3.09
COc1ccc(-c2cc3nc(-c4ccccc4)cc(N4CCC5(CC4)OCCO5)n3n2)cc1	%	5.97
COc1cc(-c2cn[nH]c2N)cc(OC)c1OC	%	6.07
O=C1NC(=O)N(Cc2ccc(F)cc2)C(=O)/C1=C/c1cccs1	%	-2.44
Cc1cc(C)n2nc(SCCOc3ccccc3)nc2n1	%	-0.25
COCCn1cnnc1SCC(=O)Nc1cccc(S(=O)(=O)N2CCCCCC2)c1	%	1.58
O=C(O)CNC(=O)C(Cc1ccccc1)NC(=O)OCc1ccccc1 (stereo unspecified)	%	2.74
CC1=CC(C)C(C(=O)O)C(C(=O)O)C1 (stereo unspecified)	%	4.72
COC(=O)C1C(c2ccccc2)C=CC(c2ccccc2)C1C(=O)O (stereo unspecified)	%	2.66
CSc1ccccc1C(=O)C1CCCN(Cc2ccn[nH]2)C1 (stereo unspecified)	%	10.5

* * *

Target: Bifunctional protein GlmU (Mycobacterium tuberculosis (strain ATCC 25618 / H37Rv))
Test: inhibition of mycobacterial GlmU enzyme – biochemical, glucosamine-1-phosphate acetyltransferase (AID 1376);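 further: 0% = complete reaction with vehicle and 100% = reaction without substrate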
Conditions: M. tuberculosis GlmU acetyltransferase enzyme assay; active compounds read high;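 tested at 30 µM in the primary screen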
About 530 (0.24%) of roughly 220,000 compounds were called active. The sample holds actives, similar compounds and a random draw of the others, so the mix is not that of the screen. Entries with a potency or affinity are not part of this list.

compound	test-target	inhibition [%]
c1ccc(-n2nnc(-c3cccnc3)n2)cc1	Bifunctional protein GlmU (Mycobacterium tuberculosis (strain ATCC 25618 / H37Rv))	1.76
Cn1c2ccccc2c2cc(C(=O)N3CCOCC3)sc21	Bifunctional protein GlmU (Mycobacterium tuberculosis (strain ATCC 25618 / H37Rv))	5.13
Cn1c2ccccc2c2cc(C(=O)N3CCN(CCO)CC3)sc21	Bifunctional protein GlmU (Mycobacterium tuberculosis (strain ATCC 25618 / H37Rv))	12.8
CCc1cc2c(SCC(=O)O)ncnc2s1	Bifunctional protein GlmU (Mycobacterium tuberculosis (strain ATCC 25618 / H37Rv))	-4.14
COc1cc(/C=N/NC(=O)c2cccnc2)ccc1OS(=O)(=O)c1cc(C)ccc1C	Bifunctional protein GlmU (Mycobacterium tuberculosis (strain ATCC 25618 / H37Rv))	-3.66
O=C(CNCC1CCCO1)N1CCCc2ccccc21 (configuration not stated)	Bifunctional protein GlmU (Mycobacterium tuberculosis (strain ATCC 25618 / H37Rv))	1.14
CCOC(=O)/C(=N/Nc1ccccc1OC)N1CCCc2ccccc21	Bifunctional protein GlmU (Mycobacterium tuberculosis (strain ATCC 25618 / H37Rv))	3.21
CCc1cc2c(SCC(=O)c3ccccc3)ncnc2s1	Bifunctional protein GlmU (Mycobacterium tuberculosis (strain ATCC 25618 / H37Rv))	-3.16
COc1ccc(C=C2C(=O)c3ccccc3C2=O)cc1O	Bifunctional protein GlmU (Mycobacterium tuberculosis (strain ATCC 25618 / H37Rv))	9.53
N#Cc1nc(Cc2cccc3ccccc23)oc1N1CCC(C(N)=O)CC1	Bifunctional protein GlmU (Mycobacterium tuberculosis (strain ATCC 25618 / H37Rv))	1.98
CC(=O)NNC(=O)c1cc2c3ccccc3n(C)c2s1	Bifunctional protein GlmU (Mycobacterium tuberculosis (strain ATCC 25618 / H37Rv))	2.59
COc1cc(C=C2C(=O)c3ccccc3C2=O)ccc1O	Bifunctional protein GlmU (Mycobacterium tuberculosis (strain ATCC 25618 / H37Rv))	10.6
